Biological target: Delta-type opioid receptor (Homo sapiens, UniProt P41143)
Sequence (P41143 whole entry): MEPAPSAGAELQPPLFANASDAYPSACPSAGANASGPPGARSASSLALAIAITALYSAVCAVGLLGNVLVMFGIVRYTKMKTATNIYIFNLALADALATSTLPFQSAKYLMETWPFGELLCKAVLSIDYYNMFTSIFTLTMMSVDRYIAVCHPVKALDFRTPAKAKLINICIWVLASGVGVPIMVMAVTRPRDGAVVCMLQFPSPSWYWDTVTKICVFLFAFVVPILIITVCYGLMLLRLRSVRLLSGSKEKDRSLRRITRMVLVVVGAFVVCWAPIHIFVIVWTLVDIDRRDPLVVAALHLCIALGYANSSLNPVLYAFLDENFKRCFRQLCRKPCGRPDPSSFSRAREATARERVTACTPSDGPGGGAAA
Assay: Agonist activity at human DOR expressed in CHO cells increase in [35S]GTPgammaS binding measured after […] by scintillation counter analysis relative to SNC80
Format: functional, cell-based
Settings: filed as agonist
READOUT TYPE: Emax (%)
Answers are plain numbers, in %.

Some solved cases for reference:
[
  {
    "STRUCTURE AS SMILES": "CN(C(=O)/C=C/c1ccco1)[C@@H]1CC[C@@]2(O)[C@H]3Cc4ccc(O)c5c4[C@@]2(CCN3CC2CC2)[C@H]1O5.Cl",
    "READOUT TYPE": "Emax",
    "OBSERVED RESULT": 96.1
  },
  {
    "STRUCTURE AS SMILES": "Cl.O=C(CCc1ccoc1)N[C@H]1CC[C@@]2(O)[C@H]3Cc4cccc5c4[C@@]2(CCN3CC2CC2)[C@H]1O5",
    "READOUT TYPE": "Emax",
    "OBSERVED RESULT": 93.1
  }
]

Would you mind listing Emax for each of the following compounds?
1. CN(C(=O)/C=C/c1ccco1)[C@H]1CC[C@@]2(O)[C@H]3Cc4ccc(O)c5c4[C@@]2(CCN3CC2CC2)[C@H]1O5.Cl
2. CN(C(=O)/C=C/c1ccco1)[C@@H]1CC[C@@]2(O)[C@H]3Cc4cccc5c4[C@@]2(CCN3CC2CC2)[C@H]1O5.Cl
3. CN(C(=O)/C=C/c1ccco1)[C@H]1CC[C@@]2(O)[C@H]3Cc4cccc5c4[C@@]2(CCN3CC2CC2)[C@H]1O5.Cl
4. Cl.O=C(/C=C/c1ccco1)N[C@@H]1CC[C@@]2(O)[C@H]3Cc4cccc5c4[C@@]2(CCN3CC2CC2)[C@H]1O5

Result:
[83.2, 82.1, 102, 81]

###

Biological target: Delta-type opioid receptor (Homo sapiens)
Assay: Binding affinity to DOR (unknown origin) assessed as dissociation constant
READOUT TYPE: Kd (nM)
Numbers only, in nM.

[
  {
    "MOLECULE": "CN(C(=O)/C=C/c1ccoc1)[C@H]1CC[C@@]2(O)[C@H]3Cc4ccc(O)c5c4[C@@]2(CCN3CC2CC2)[C@H]1O5.Cl",
    "Kd, nM": 0.64
  }
]

# ---- query molecule ----
Recorded result, CN(C(=O)/C=C/c1ccoc1)[C@@H]1CC[C@@]2(O)[C@H]3Cc4ccc(O)c5c4[C@@]2(CCN3CC2CC2)[C@H]1O5.Cl [NALFURAFINE HYDROCHLORIDE] , Kd: 116

###

Experiment: in vivo
Conditions: Swiss Webster, mouse, blood and plasma, sc, 0.1 mg/kg
Description: Ratio of drug level in Swiss Webster mouse blood to plasma at 0.1 mg/kg, sc measured after 60 mins by LC-MS/MS analysis
READOUT TYPE: blood plasma ratio at 1 h
One number for each entry.

[
  {
    "STRUCTURE AS SMILES": "CN(C(=O)/C=C/c1ccco1)[C@@H]1CC[C@@]2(O)[C@H]3Cc4ccc(O)c5c4[C@@]2(CCN3CC2CC2)[C@H]1O5.Cl",
    "OBSERVED RESULT": 1.45
  }
]

Recorded result, `CN(C(=O)/C=C/c1ccco1)[C@H]1CC[C@@]2(O)[C@H]3Cc4ccc(O)c5c4[C@@]2(CCN3CC2CC2)[C@H]1O5.Cl` , blood plasma ratio at 1 h: 0.938

###

Target: Delta-type opioid receptor (Homo sapiens, UniProt P41143)
Assay: Displacement of [3H]diprenorphine from human DOR expressed in CHO cells assessed as dissociation constant incubated for […] by radioligand binding assay
Format: cell-based
pKd: −log10 of the molar value.
Assign Fulfilled whenever pKd does not fall below 8; assign Not fulfilled whenever it does.

Past entries and their recorded results:
[
  {
    "STRUCTURE AS SMILES": "CN(C(=O)CCc1ccoc1)[C@@H]1CC[C@@]2(O)[C@H]3Cc4cccc5c4[C@@]2(CCN3CC2CC2)[C@H]1O5.Cl",
    "ASSIGNED CLASS": "Not fulfilled"
  },
  {
    "STRUCTURE AS SMILES": "Cl.O=C(CCc1ccoc1)N[C@@H]1CC[C@@]2(O)[C@H]3Cc4cccc5c4[C@@]2(CCN3CC2CC2)[C@H]1O5",
    "ASSIGNED CLASS": "Not fulfilled"
  },
  {
    "STRUCTURE AS SMILES": "CN(C(=O)/C=C/c1ccco1)[C@@H]1CC[C@@]2(O)[C@H]3Cc4cccc5c4[C@@]2(CCN3CC2CC2)[C@H]1O5.Cl",
    "ASSIGNED CLASS": "Not fulfilled"
  },
  {
    "STRUCTURE AS SMILES": "CN(C(=O)CCc1ccco1)[C@H]1CC[C@@]2(O)[C@H]3Cc4ccc(O)c5c4[C@@]2(CCN3CC2CC2)[C@H]1O5.Cl",
    "ASSIGNED CLASS": "Fulfilled"
  },
  {
    "STRUCTURE AS SMILES": "CN(C(=O)CCc1ccoc1)[C@H]1CC[C@@]2(O)[C@H]3Cc4ccc(O)c5c4[C@@]2(CCN3CC2CC2)[C@H]1O5.Cl",
    "ASSIGNED CLASS": "Fulfilled"
  },
  {
    "STRUCTURE AS SMILES": "Cl.O=C(/C=C/c1ccco1)N[C@@H]1CC[C@@]2(O)[C@H]3Cc4cccc5c4[C@@]2(CCN3CC2CC2)[C@H]1O5",
    "ASSIGNED CLASS": "Not fulfilled"
  }
]

Ask: Say whether `Cl.O=C(/C=C/c1ccco1)N[C@H]1CC[C@@]2(O)[C@H]3Cc4cccc5c4[C@@]2(CCN3CC2CC2)[C@H]1O5` shows pKd of 8 or more.
Result: Not fulfilled

Ask: Say whether `CN(C(=O)/C=C/c1ccco1)[C@H]1CC[C@@]2(O)[C@H]3Cc4cccc5c4[C@@]2(CCN3CC2CC2)[C@H]1O5.Cl` shows pKd of 8 or more.
Result: Not fulfilled

Ask: Say whether `CN(C(=O)CCc1ccco1)[C@H]1CC[C@@]2(O)[C@H]3Cc4cccc5c4[C@@]2(CCN3CC2CC2)[C@H]1O5.Cl` shows pKd of 8 or more.
Result: Not fulfilled

Ask: Say whether `Cl.O=C(CCc1ccoc1)N[C@H]1CC[C@@]2(O)[C@H]3Cc4cccc5c4[C@@]2(CCN3CC2CC2)[C@H]1O5` shows pKd of 8 or more.
Result: Not fulfilled

Ask: Say whether `Cl.O=C(CCc1ccco1)N[C@H]1CC[C@@]2(O)[C@H]3Cc4cccc5c4[C@@]2(CCN3CC2CC2)[C@H]1O5` shows pKd of 8 or more.
Result: Not fulfilled

###

Assay: in vivo
Details: Swiss Webster, mouse, blood and plasma, sc, 0.1 mg/kg
Description: Ratio of drug level in Swiss Webster mouse blood to plasma at 0.1 mg/kg, sc measured after 30 mins by LC-MS/MS analysis
Kindly supply the reported blood plasma ratio at 0.5 h values for the records listed here.
Numbers only.

[
  {
    "STRUCTURE AS SMILES": "CN(C(=O)/C=C/c1ccco1)[C@H]1CC[C@@]2(O)[C@H]3Cc4ccc(O)c5c4[C@@]2(CCN3CC2CC2)[C@H]1O5.Cl",
    "blood plasma ratio at 0.5 h": 0.633
  }
]

# ---- query compound ----
Recorded result, `CN(C(=O)/C=C/c1ccco1)[C@@H]1CC[C@@]2(O)[C@H]3Cc4ccc(O)c5c4[C@@]2(CCN3CC2CC2)[C@H]1O5.Cl` , blood plasma ratio at 0.5 h: 0.645

###

Tested on: Mus musculus
Test: Antinociception activity in male Swiss Webster mouse model assessed as increase in maximum possible effect at 10 mg/kg, sc measured after 20 mins by warm-water tail immersion assay relative to control
Format: functional
READOUT TYPE: MPE
Could you write the number and then its unit?

[
  {
    "STRUCTURE AS SMILES": "CN(C(=O)CCc1ccco1)[C@@H]1CC[C@@]2(O)[C@H]3Cc4ccc(O)c5c4[C@@]2(CCN3CC2CC2)[C@H]1O5.Cl",
    "READOUT TYPE": "MPE",
    "OBSERVED RESULT": "100%"
  },
  {
    "STRUCTURE AS SMILES": "Cl.O=C(CCc1ccco1)N[C@@H]1CC[C@@]2(O)[C@H]3Cc4cccc5c4[C@@]2(CCN3CC2CC2)[C@H]1O5",
    "READOUT TYPE": "MPE",
    "OBSERVED RESULT": "40%"
  },
  {
    "STRUCTURE AS SMILES": "CN(C(=O)/C=C/c1ccco1)[C@@H]1CC[C@@]2(O)[C@H]3Cc4cccc5c4[C@@]2(CCN3CC2CC2)[C@H]1O5.Cl",
    "READOUT TYPE": "MPE",
    "OBSERVED RESULT": "40%"
  },
  {
    "STRUCTURE AS SMILES": "Cl.O=C(/C=C/c1ccco1)N[C@H]1CC[C@@]2(O)[C@H]3Cc4ccc(O)c5c4[C@@]2(CCN3CC2CC2)[C@H]1O5",
    "READOUT TYPE": "MPE",
    "OBSERVED RESULT": "100%"
  }
]

Would you mind listing MPE for each of the following compounds?
1. CN(C(=O)/C=C/c1ccoc1)[C@H]1CC[C@@]2(O)[C@H]3Cc4ccc(O)c5c4[C@@]2(CCN3CC2CC2)[C@H]1O5.Cl
2. CN(C(=O)CCc1ccco1)[C@@H]1CC[C@@]2(O)[C@H]3Cc4cccc5c4[C@@]2(CCN3CC2CC2)[C@H]1O5.Cl
3. CN(C(=O)CCc1ccco1)[C@H]1CC[C@@]2(O)[C@H]3Cc4cccc5c4[C@@]2(CCN3CC2CC2)[C@H]1O5.Cl

Result:
["100%", "40%", "40%"]
